System: HeLa cells
Experiment: One-hundred-time-point timelapse microscopy (photostability / resistance to photobleaching)
Format: cell-based
Details: 100 pulses of 300 ms, maximum intensity of the image tracked
MEASURED ENDPOINT: loss of intensity over 100 scans

ClCc1ccc(C2=c3cc4c5c(c3Oc3c2cc2c6c3CCCN6CCC2)CCC[N+]=5CCC4)cc1.[Cl-] [Mitotracker, reference compound]
34%

Prompt: Requested field: loss of intensity over 100 scans. Item: `C[n+]1ccc2c(c1)Oc1ccccc1/C2=C1/c2ccccc2Oc2cnccc21`
Response: ~30%

Prompt: Then `c1cc2oc3cnccc3c3c2c(c1)c1cccc2oc4cnccc4c3c21` ?
Response: ~13%

Prompt: Then `C[n+]1ccc2c(c1)oc1cccc3c4cccc5oc6cnccc6c(c54)c2c13` ?
Response: ~5%

Prompt: Then CN(C)CCNC(=O)CCc1ccc2n1[B-](F)(F)[N+]1=C(c3ccc[nH]3)C=CC1=C2 [lysotracker, reference compound] ?
Response: 80%
